mean nematode size ln(EXT) (ln) by entry:
test system: Caenorhabditis elegans N2; test: mean nematode size ln(EXT) after 48 h, plate-adjusted (DMSO control set to 6) (ln(EXT), control-adjusted); higher = larger nematodes / less growth inhibition; settings: 50 µM; exposure time 48 h
Give the value as a plain number.

{"Compound": "CCCOC(=O)c1ccc(C(=O)OCCC)nc1", "Assay system": "Caenorhabditis elegans N2", "mean nematode size ln(EXT) (ln)": 5.93}
{"Compound": "COCCOc1cc2cc(C(=O)NC3CCN(C(C)C)CC3)n(CC(=O)Nc3ccc(Cl)cn3)c2cn1", "Assay system": "Caenorhabditis elegans N2", "mean nematode size ln(EXT) (ln)": 4.98}
{"Compound": "CC(C)(C)OOC(=O)c1ccccc1 [tert-Butyl perbenzoate]", "Assay system": "Caenorhabditis elegans N2", "mean nematode size ln(EXT) (ln)": 6}
{"Compound": "CCCCCCCCCCCC[N+](C)(C)C [Dodecyl trimethyl ammonium chloride]", "Assay system": "Caenorhabditis elegans N2", "mean nematode size ln(EXT) (ln)": 5.76}
{"Compound": "COc1ccc(O)c(C(C)(C)C)c1", "Assay system": "Caenorhabditis elegans N2", "mean nematode size ln(EXT) (ln)": 5.94}
{"Compound": "O=c1[nH]cnc2c1ncn2[C@H]1CC[C@@H](CO)O1", "Assay system": "Caenorhabditis elegans N2", "mean nematode size ln(EXT) (ln)": 5.89}
{"Compound": "CCOP(=S)(Oc1cnc(C(C)(C)C)nc1)OC(C)C (stereo not drawn)", "Assay system": "Caenorhabditis elegans N2", "mean nematode size ln(EXT) (ln)": 4.5}
{"Compound": "Clc1ccc(Cl)cc1", "Assay system": "Caenorhabditis elegans N2", "mean nematode size ln(EXT) (ln)": 5.84}
{"Compound": "Oc1ccc(Cl)cc1Cc1ccccc1", "Assay system": "Caenorhabditis elegans N2", "mean nematode size ln(EXT) (ln)": 5.15}
{"Compound": "CS(=O)(=O)OCCCCOS(C)(=O)=O", "Assay system": "Caenorhabditis elegans N2", "mean nematode size ln(EXT) (ln)": 5.98}

Form field, mean nematode size ln(EXT) (ln) with Caenorhabditis elegans N2, item N#Cc1cccnc1 : 5.65

Form field, mean nematode size ln(EXT) (ln) with Caenorhabditis elegans N2, item O=C1OC(=O)C2C3C=CC(C3)C12 (stereo not drawn) [4,7-Methanoisobenzofuran-1,3-dione, 3A,4,7,7A-tetrahydro-] : 5.8

Form field, mean nematode size ln(EXT) (ln) with Caenorhabditis elegans N2, item NC1CCCCC1 : 5.98

Values compiled from the supplement of paper PMC4858399.
